test: Stability of the five compounds in SD rat plasma (QC samples, UHPLC-ESI-MS/MS); assay type: in vitro ADME; settings: SD rat plasma, nominal 5000 ng/mL, Room temperature 24h, n=5
# stability, Accuracy (measured versus nominal concentration) annotations
Numbers only; they are read as %.

- CC1=C[C@H]2[C@@H](CC1)[C@H](C)CC[C@H]2[C@@H](C)C(=O)O [DHAA, Dihydroartemisinic acid]: 101.58
- C[C@@H]1CC[C@H]2[C@@H](C)C(=O)O[C@@H]3O[C@@]4(C)CC[C@@H]1[C@]32O4 [DEART, Deoxyartemisinin]: 104.10
- C=C1CC[C@@H]2[C@H]3[C@@H](CC[C@H]2C)[C@@H](C)C(=O)O[C@H]13 [ARTI, Arteannuin I]: 95.29
- C[C@@H]1CC[C@H]2[C@@H](C)C(=O)O[C@@H]3O[C@@]4(C)CC[C@@H]1[C@]32OO4 [ART, Artemisinin, reference compound]: 104.57

Query: Please report stability, Accuracy (measured versus nominal concentration) for the following compound: C=C(C(=O)O)[C@@H]1CC[C@@H](C)[C@@H]2CCC(C)=C[C@@H]21 [AA, Artemisinic acid]
Reply: 93.78

----------
experiment: in vivo; conditions: male, Sprague Dawley, rat, po, 352 mg/kg
# AUC(0-t) annotations
Numbers only; they are read as ng·h/mL.

Solved cases below.
- C=C1CC[C@@H]2[C@H]3[C@@H](CC[C@H]2C)[C@@H](C)C(=O)O[C@H]13 [ARTI, Arteannuin I]: 990
- C=C(C(=O)O)[C@@H]1CC[C@@H](C)[C@@H]2CCC(C)=C[C@@H]21 [AA, Artemisinic acid]: 23000
- C[C@@H]1CC[C@H]2[C@@H](C)C(=O)O[C@@H]3O[C@@]4(C)CC[C@@H]1[C@]32OO4 [ART, Artemisinin, reference compound]: 763
- CC1=C[C@H]2[C@@H](CC1)[C@H](C)CC[C@H]2[C@@H](C)C(=O)O [DHAA, Dihydroartemisinic acid]: 28700

Query: Please report AUC(0-t) for the following compound: C[C@@H]1CC[C@H]2[C@@H](C)C(=O)O[C@@H]3O[C@@]4(C)CC[C@@H]1[C@]32O4 [DEART, Deoxyartemisinin]
Reply: 750

----------
# stability, Accuracy (measured versus nominal concentration) annotations
Experiment: Stability of the five compounds in SD rat plasma (QC samples, UHPLC-ESI-MS/MS)
Format: in vitro ADME
Conditions: SD rat plasma, nominal 1000 ng/mL, 7 days at -80°C, n=5
Method: The method was validated according to the US Food and Drug Administration (FDA) Bioanalytical Method Validation Guidance as follows: [1] specificity was assessed by analyzing blank plasma, blank plasma spiked with standard solutions and rat plasma samples after oral administration. […] The lower limit of quantification (LLOQ) refers to the lowest concentration, which is typically 10 times the signal-to-noise ratio. […]
Numbers only; they are read as %.

• CC1=C[C@H]2[C@@H](CC1)[C@H](C)CC[C@H]2[C@@H](C)C(=O)O [DHAA, Dihydroartemisinic acid] = 106.36
• C[C@@H]1CC[C@H]2[C@@H](C)C(=O)O[C@@H]3O[C@@]4(C)CC[C@@H]1[C@]32OO4 [ART, Artemisinin, reference compound] = 105.14
• C=C1CC[C@@H]2[C@H]3[C@@H](CC[C@H]2C)[C@@H](C)C(=O)O[C@H]13 [ARTI, Arteannuin I] = 92.03
• C=C(C(=O)O)[C@@H]1CC[C@@H](C)[C@@H]2CCC(C)=C[C@@H]21 [AA, Artemisinic acid] = 91.94

API: the following record is the query input.
Query: Please report stability, Accuracy (measured versus nominal concentration) for the following molecule: C[C@@H]1CC[C@H]2[C@@H](C)C(=O)O[C@@H]3O[C@@]4(C)CC[C@@H]1[C@]32O4 [DEART, Deoxyartemisinin]
Reply: 106.86
